Target: Estrogen receptor (Homo sapiens) (UniProt P03372)
Sequence (P03372 whole entry, looked up): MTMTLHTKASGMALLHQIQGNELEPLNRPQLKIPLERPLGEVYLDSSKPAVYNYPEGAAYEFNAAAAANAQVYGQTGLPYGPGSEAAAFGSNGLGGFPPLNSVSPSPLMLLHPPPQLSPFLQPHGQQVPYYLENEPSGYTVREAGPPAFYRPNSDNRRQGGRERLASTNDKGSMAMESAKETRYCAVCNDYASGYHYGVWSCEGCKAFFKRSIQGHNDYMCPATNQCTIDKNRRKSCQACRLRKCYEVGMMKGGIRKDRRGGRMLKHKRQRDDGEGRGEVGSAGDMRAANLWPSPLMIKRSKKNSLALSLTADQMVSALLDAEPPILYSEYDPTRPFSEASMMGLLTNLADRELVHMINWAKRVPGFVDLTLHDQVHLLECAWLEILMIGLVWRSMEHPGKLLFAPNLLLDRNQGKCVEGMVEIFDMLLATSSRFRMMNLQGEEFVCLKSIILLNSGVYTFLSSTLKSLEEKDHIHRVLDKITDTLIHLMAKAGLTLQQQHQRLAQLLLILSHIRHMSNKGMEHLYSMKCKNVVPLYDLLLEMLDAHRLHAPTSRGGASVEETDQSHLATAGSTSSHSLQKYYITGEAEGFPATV
Assay: OT_ERa_GFPERaERE_0480: Odyssey Thera (OT) 8-hour HeLa Transcription Induction Assay for Estrogen Receptor (AID 2283381)
Active and inactive are the calls of the source. The calls were made as follows: active = hit-call score of the fitted dose curve at least 0.9, where 1 is the maximum; inactive = score below 0.9.
Outcomes: active, inactive

- MOLECULE: "CCCOC(=O)c1ccc(O)cc1"
  CLASS ASSIGNMENT: "active"
- MOLECULE: "CCCCCCCCCCCCc1ccccc1S(=O)(=O)O"
  CLASS ASSIGNMENT: "active"
- MOLECULE: "NC(=O)N1C(=O)C(C(=O)c2cc(Cl)cs2)c2cc(F)c(Cl)cc21 (stereo not drawn)"
  CLASS ASSIGNMENT: "inactive"
- MOLECULE: "Cc1cc(CCN2CCN(c3nsc4ccccc34)CC2)cc2c1NC(=O)CC2(C)C"
  CLASS ASSIGNMENT: "active"
- MOLECULE: "ClC1=C(Cl)C(Cl)(Cl)C(Cl)=C1Cl"
  CLASS ASSIGNMENT: "inactive"
- MOLECULE: "c1ccc2c(c1)Cc1ccccc1-2"
  CLASS ASSIGNMENT: "inactive"
- MOLECULE: "CN1CCC[C@H]1c1cccnc1"
  CLASS ASSIGNMENT: "inactive"
- MOLECULE: "O=C(OCCOCCOC(=O)c1ccccc1)c1ccccc1"
  CLASS ASSIGNMENT: "inactive"

###

Read-out: matrix metalloproteinase-3 (MMP3), MMP3 (gene 4314)
Assay: LTEA_HepaRG_MMP3: Life Technologies and Expression Analysis (LTEA) Assay for matrix metalloproteinase-3 (MMP3) using HepaRG (AID 2283519)
Details: mRNA level, 48 h; actives raise or lower the signal
Calls of active or inactive are those of the source. How the source made its calls: active means hit-call score of the fitted dose curve at least 0.9, where 1 is the maximum; inactive means score below 0.9.
Classes used: Y (active), N (inactive)

- COMPOUND: "CC(C)(C)c1cc(C(C)(C)C)c(O)c(C(C)(C)C)c1"
  CLASS ASSIGNMENT: "N"
- COMPOUND: "OCCC(F)(F)C(F)(F)C(F)(F)C(F)(F)C(F)(F)C(F)(F)F"
  CLASS ASSIGNMENT: "N"
- COMPOUND: "CCCCCCCCOC(=O)CCCCCCCCC(=O)OCCCCCCCC"
  CLASS ASSIGNMENT: "N"
- COMPOUND: "N#C[C@@H]1CC(F)(F)CN1C(=O)CNC1CC2CCC(C1)N2c1ncccn1 (some centres not stated)"
  CLASS ASSIGNMENT: "N"
- COMPOUND: "O=C(O)c1ccccc1C(c1ccc(O)cc1)c1ccc(O)cc1"
  CLASS ASSIGNMENT: "N"
- COMPOUND: "CCC(=C(c1ccc(O)cc1)c1ccc(OCCN(C)C)cc1)c1ccccc1"
  CLASS ASSIGNMENT: "N"
- COMPOUND: "O=C(O)Cc1cc(I)c(Oc2cc(I)c(O)c(I)c2)c(I)c1"
  CLASS ASSIGNMENT: "Y"
- COMPOUND: "CCc1ccc(CCOc2ccc(CC3SC(=O)NC3=O)cc2)nc1 (configuration not stated)"
  CLASS ASSIGNMENT: "N"
- COMPOUND: "Oc1cccc(O)c1"
  CLASS ASSIGNMENT: "N"
- COMPOUND: "CCCCC(CC)COC(=O)CCCCC(=O)OCC(CC)CCCC (configuration not stated)"
  CLASS ASSIGNMENT: "N"
- COMPOUND: "c1ccc2cc3c(ccc4ccccc43)cc2c1"
  CLASS ASSIGNMENT: "N"
- COMPOUND: "CCc1nn(C2CCCCC2)c2cc(C3(C#N)CCC(C(=O)O)CC3)ccc12 (configuration not stated)"
  CLASS ASSIGNMENT: "N"

These data points were gathered from PubChem BioAssay (EPA / NIEHS).
